Target: b0,+AT (SLC7A9), in the heteromeric transporter b0,+AT-rBAT (Homo sapiens)
Sequence (P82251 whole entry): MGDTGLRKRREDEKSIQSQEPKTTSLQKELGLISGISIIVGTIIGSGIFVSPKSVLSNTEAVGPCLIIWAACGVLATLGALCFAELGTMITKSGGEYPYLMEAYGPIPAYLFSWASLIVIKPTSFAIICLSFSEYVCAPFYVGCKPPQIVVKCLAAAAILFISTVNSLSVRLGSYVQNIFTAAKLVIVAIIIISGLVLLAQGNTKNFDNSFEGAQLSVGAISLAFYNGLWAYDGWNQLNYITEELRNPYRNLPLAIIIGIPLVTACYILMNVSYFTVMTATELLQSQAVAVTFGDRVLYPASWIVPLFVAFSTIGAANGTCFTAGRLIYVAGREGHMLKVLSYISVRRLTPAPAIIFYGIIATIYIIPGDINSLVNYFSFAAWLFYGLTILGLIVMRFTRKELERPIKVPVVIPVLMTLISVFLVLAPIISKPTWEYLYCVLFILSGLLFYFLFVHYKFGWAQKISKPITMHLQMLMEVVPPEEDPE
Sequence (Q07837 whole entry partner): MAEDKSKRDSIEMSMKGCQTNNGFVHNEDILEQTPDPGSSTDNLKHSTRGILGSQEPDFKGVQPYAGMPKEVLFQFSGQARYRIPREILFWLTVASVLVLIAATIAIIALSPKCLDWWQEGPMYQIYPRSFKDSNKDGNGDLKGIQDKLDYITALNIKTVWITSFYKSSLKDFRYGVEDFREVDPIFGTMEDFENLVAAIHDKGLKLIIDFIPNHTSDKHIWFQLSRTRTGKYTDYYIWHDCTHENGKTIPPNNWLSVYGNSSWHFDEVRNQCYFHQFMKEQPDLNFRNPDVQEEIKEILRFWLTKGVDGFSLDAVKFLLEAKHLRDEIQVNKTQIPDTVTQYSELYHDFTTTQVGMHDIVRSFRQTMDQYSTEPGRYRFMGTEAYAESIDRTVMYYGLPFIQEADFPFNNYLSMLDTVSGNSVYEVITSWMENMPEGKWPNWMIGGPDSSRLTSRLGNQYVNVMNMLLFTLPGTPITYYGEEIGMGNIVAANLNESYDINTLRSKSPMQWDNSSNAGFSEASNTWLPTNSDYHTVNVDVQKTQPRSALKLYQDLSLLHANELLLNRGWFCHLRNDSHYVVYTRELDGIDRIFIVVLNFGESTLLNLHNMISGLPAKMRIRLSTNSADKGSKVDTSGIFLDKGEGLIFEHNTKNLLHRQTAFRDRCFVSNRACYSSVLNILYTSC
Test: cell-based
measured.quantity: pIC50
Worth noting: pIC50 values are minus log10 of concentrations stated in mol/L.

Query: What pIC50 value was documented for this compound, `N=C(N)NCCC[C@H](N)C(=O)O` ?
Response: 3.94
